target: Bcl-xL, Q07817; experiment: peptide SPOT array, c-Myc-tagged receptor at 1 uM or 100 nM, anti-c-Myc-Cy3
Sequence (Q07817 1-209): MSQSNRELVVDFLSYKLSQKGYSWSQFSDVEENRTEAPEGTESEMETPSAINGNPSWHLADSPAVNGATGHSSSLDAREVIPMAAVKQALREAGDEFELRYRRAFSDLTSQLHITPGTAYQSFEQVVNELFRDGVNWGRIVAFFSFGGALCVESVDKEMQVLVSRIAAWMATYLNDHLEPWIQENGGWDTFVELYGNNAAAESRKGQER
MEASURED QUANTITY: SPOT signal as a fraction of Bim BH3's signal on the same receptor and array

{"columns": ["BINDER", "MEASURED NUMBER"],
 "data": [
  ["RGAMLSLATGDAHSGSDLSLLVPEIE [FAM115A]", 0.06],
  ["NNNMDVESRTDATMGDTLASRGLLDA [SEC16A]", 0.05],
  ["RYPILENPEILRKTADDFLNRIALTD [CCNH]", 0.06],
  ["IQENVDISTVYQIFADEVLGSGQFGI [PRKD3]", 0.08],
  ["FEKLRMIAKEDRHVGRMASVNMDPAL [RAPGEF2]", 0.13],
  ["PVQVQQYIKKLYILGGEVAESAQKCT [PAXIP1]", 0.05]
]}
